- Tested on: isolated perfused rat pancreas (insulin secretion)
- Assay Explanation: Insulin-secretory activity in the isolated perfused rat pancreas
- Design: species or system rat (female Charles River)
- Details: 100 μM; 16.7 mM glucose; index > 1 indicates suppression of insulin secretion
Reported Property: Perfused Pancreas Inhibition Index
Please give the numeric answer without any surrounding text.

Some compounds with recorded Perfused Pancreas Inhibition Index:
| Compound | Perfused Pancreas Inhibition Index |
| --- | --- |
| C(=C(c1ccccc1)c1ccccc1)C1CCN(CCCCCc2cccnc2)CC1 [Example 19] | 24.1 |
| c1ccc(C(CC2CCN(CCCCc3cccnc3)CC2)c2ccccc2)cc1 [Example 20] | 19.1 |
| Fc1ccc(C(=CC2CCN(CCCCc3cccnc3)CC2)c2ccc(F)cc2)cc1 [Example 18] | 0.6 |
| C(=C(c1ccccc1)c1ccccc1)C1CCN(CCCCCCc2cccnc2)CC1 [Example 23] | 2.6 |
| O=C(CCCc1cccnc1)N1CCC(CC(c2ccccc2)c2ccccc2)CC1 [Example 14] | 14.1 |

query: Form field: reported Perfused Pancreas Inhibition Index of Fc1ccc(C(CC2CCN(CCCCc3cccnc3)CC2)c2ccc(F)cc2)cc1 [Example 21]
result: 16.3

query: Form field: reported Perfused Pancreas Inhibition Index of O=C(CCCc1cccnc1)N1CCC(C(c2ccccc2)c2ccccc2)CC1 [Example 10]
result: 6.0

query: Form field: reported Perfused Pancreas Inhibition Index of C(=C(c1ccccc1)c1ccccc1)C1CCN(CCCc2cccnc2)CC1 [Example 22]
result: 10.1

query: Form field: reported Perfused Pancreas Inhibition Index of C(=C(c1ccccc1)c1ccccc1)C1CCN(CCCCc2cccnc2)CC1 [Example 17]
result: 1.7

query: Form field: reported Perfused Pancreas Inhibition Index of c1ccc(C(c2ccccc2)C2CCN(CCCCc3cccnc3)CC2)cc1 [Example 16]
result: 5.3

query: Form field: reported Perfused Pancreas Inhibition Index of C(=C(c1ccccc1)c1ccccc1)C1CCN(CCCCCCc2cncnc2)CC1 [Example 29]
result: 10.4

query: Form field: reported Perfused Pancreas Inhibition Index of C(=C(c1ccccc1)c1ccccc1)C1CCN(CCCCc2cncnc2)CC1 [Example 28]
result: 3.0
